target: CTLA-4 (Homo sapiens (Human)) (UniProt P16410); assay: flow cytometry, transfected cells
Sequence (P16410 36-223): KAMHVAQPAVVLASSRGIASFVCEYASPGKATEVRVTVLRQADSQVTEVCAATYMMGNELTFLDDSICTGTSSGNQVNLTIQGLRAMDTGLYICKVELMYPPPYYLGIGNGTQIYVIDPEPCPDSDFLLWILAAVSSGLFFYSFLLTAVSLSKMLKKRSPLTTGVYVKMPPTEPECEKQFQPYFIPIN
metric_name: MFI ratio to WT (ΔWT)

input: Find the measured MFI ratio to WT (ΔWT) of ICOSL-Fc N52S/N57Y/Q100S (Fc fusion) DTQEKEVRAMVGSDVELSCACPEGSRFDLNDVYVYWQTSESKTVVTYHIPQSSSLEYVDSRYRNRALMSPAGMLRGDFSLRLFNVTPQDEQKFHCLVLSSSLGFQEVLSVEVTLHVAANFSVPVVSAPHSPSQDELTFTCTSINGYPRPNVYWINKTDNSLLDQALQNDTVFLNMRGLYDVVSVLRIARTPSVNIGCCIENVLLQQNLTVGSQTGNDIGERDKITENPVSTGEKNAAT and report it.
output: 0.62 fold

input: For ICOSL-Fc N52R/N57Y/Q100S (Fc fusion) DTQEKEVRAMVGSDVELSCACPEGSRFDLNDVYVYWQTSESKTVVTYHIPQRSSLEYVDSRYRNRALMSPAGMLRGDFSLRLFNVTPQDEQKFHCLVLSSSLGFQEVLSVEVTLHVAANFSVPVVSAPHSPSQDELTFTCTSINGYPRPNVYWINKTDNSLLDQALQNDTVFLNMRGLYDVVSVLRIARTPSVNIGCCIENVLLQQNLTVGSQTGNDIGERDKITENPVSTGEKNAAT , write its MFI ratio to WT (ΔWT).
output: 1.53 fold

input: Tell me MFI ratio to WT (ΔWT) reported for ICOSL-Fc N52A/N57H/Q100S (Fc fusion) DTQEKEVRAMVGSDVELSCACPEGSRFDLNDVYVYWQTSESKTVVTYHIPQASSLEHVDSRYRNRALMSPAGMLRGDFSLRLFNVTPQDEQKFHCLVLSSSLGFQEVLSVEVTLHVAANFSVPVVSAPHSPSQDELTFTCTSINGYPRPNVYWINKTDNSLLDQALQNDTVFLNMRGLYDVVSVLRIARTPSVNIGCCIENVLLQQNLTVGSQTGNDIGERDKITENPVSTGEKNAAT
output: 0.97 fold
